Assay: Photochromic properties of spiropyran compounds in methyl polymethacrylate film
Format: physicochemical
Details: color-developing film, spectrophotometer 220A
Protocol: The concentration of the above compound contained in the film was adjusted to be 1.0×10^-4 mol/g and the thickness was adjusted to be 0.1 mm. The photochromic film was exposed to the light of a mercury lamp SHL-100 produced by Toshiba Co. at a temperature of 25° C.+1° C. from a distance of 10 cm for 60 seconds so as to develop a color, in order to measure its photochromic properties. The photochromic properties were expressed as described below. Max. absorption wavelength (λmax) […]
Can you tell me λ MAX (max. absorption wavelength) for the items I'm about to list?
Answers are plain numbers, in nm.

CCC1=Cc2c(cnc3ccccc23)OC12C1C=CCC2CCC1 (centres unmarked) ... 415
C1=CC2CCCC(C1)C21Oc2ccc3ccccc3c2C(c2ccccc2)=C1CCc1ccccc1 (centres unmarked) ... 440
COc1ccc(C2=Cc3c(ccc4ccccc34)OC23C2C=CCC3CCC2)cc1 (centres unmarked) ... 420

List λ MAX (max. absorption wavelength) for every entry below, keeping the order given.
1. CCCCC1=CC2(Oc3c(C#N)cccc31)C1C=CCC2CCC1 (centres unmarked)
2. CC(C)C1=Cc2c(ccc3ccccc23)OC12C1C=CCC2CCC1 (centres unmarked)

Outgoing:
1: 494; 2: 410

---

test: Photochromic properties of spiropyran compounds in methyl polymethacrylate film; assay type: physicochemical; conditions: absorbancy at max. absorption wavelength, irradiated 60 seconds minus not irradiated; 25° C.
observation type: ε (60 sec.) -ε (0 sec.)
Give bare numbers.

Before answering, review these 8 worked examples.
CC1(C)CCC2(C)CC=CC1C21C=C(c2ccccc2)c2cccnc2O1 (stereo not drawn) ... 0.6
CCC1=C(CC)C2(Oc3c1ccc1ccccc31)C1C=CCC2CCC1 (stereo not drawn) ... 1.0
CCCC12CC=CC(CCC1)C21C=C(CC)c2ccc3c(-c4ccccc4)cccc3c2O1 (stereo not drawn) ... 0.7
CC(C)C1=Cc2c(ccc3ccccc23)OC12C1C=CCC2CCC1 (stereo not drawn) ... 0.6
CCCC1=C(Cc2ccccc2)c2c(ccc3ccccc23)OC12C1C=CCC2CCC1 (stereo not drawn) ... 0.8
COc1ccc(C2=Cc3c(ccc4ccccc34)OC23C2C=CCC3CCC2)cc1 (stereo not drawn) ... 0.9
CCCCC1=CC2(Oc3c1ccc1ccccc31)C1C=CCC2CCC1 (stereo not drawn) ... 0.8
CCC1=C(Cc2ccccc2)C2(Oc3scc(Br)c31)C1C=CCC2CCC1 (stereo not drawn) ... 0.6

Just so you know, measured ε (60 sec.) -ε (0 sec.) for CCCC1=Cc2c(ccc3ccccc23)OC12C1C=CCC2CCC1 (stereo not drawn) came out at 0.6

---

assay: Photochromic properties of spiropyran compounds in methyl polymethacrylate film; type: physicochemical; conditions: color-developing film, spectrophotometer 220A
observation type: λ MAX (max. absorption wavelength) (nm)
One number for each entry, in nm.

Use the examples below as a reference point.
CCCC1=Cc2c(ccc3ccccc23)OC12C1C=CCC2CCC1 (stereo not drawn) [compound 33] ... 410
CCC1=C(CC)C2(Oc3c1ccc1ccccc31)C1C=CCC2CCC1 (stereo not drawn) [compound 42] ... 450
CC1(C)CCC2(C)CC=CC1C21C=C(c2ccccc2)c2cccnc2O1 (stereo not drawn) [compound 30] ... 480
ClC12CC=CC(CCC1)C21C=C(Cc2ccccc2)c2c(cnc3ccccc23)O1 (stereo not drawn) [compound 28] ... 402
CCCCC1=CC2(Oc3c1ccc1ccccc31)C1C=CCC2CCC1 (stereo not drawn) [compound 32] ... 445
CCC1=C(Cc2ccccc2)C2(Oc3scc(Br)c31)C1C=CCC2CCC1 (stereo not drawn) [compound 39] ... 465
CCCC1=C(Cc2ccccc2)c2c(ccc3ccccc23)OC12C1C=CCC2CCC1 (stereo not drawn) [compound 40] ... 420
C1=CC2CCCC(C1)C21Oc2ccc3ccccc3c2C=C1CCc1ccccc1 (stereo not drawn) [compound 34] ... 406

The measured λ MAX (max. absorption wavelength) associated with CCCC12CC=CC(CCC1)C21C=C(CC)c2ccc3c(-c4ccccc4)cccc3c2O1 (stereo not drawn) [compound 31] reads 460
